# TESTED_TARGET: MK-2 (Homo sapiens)
# Sequence (P49137 whole entry, species assumed): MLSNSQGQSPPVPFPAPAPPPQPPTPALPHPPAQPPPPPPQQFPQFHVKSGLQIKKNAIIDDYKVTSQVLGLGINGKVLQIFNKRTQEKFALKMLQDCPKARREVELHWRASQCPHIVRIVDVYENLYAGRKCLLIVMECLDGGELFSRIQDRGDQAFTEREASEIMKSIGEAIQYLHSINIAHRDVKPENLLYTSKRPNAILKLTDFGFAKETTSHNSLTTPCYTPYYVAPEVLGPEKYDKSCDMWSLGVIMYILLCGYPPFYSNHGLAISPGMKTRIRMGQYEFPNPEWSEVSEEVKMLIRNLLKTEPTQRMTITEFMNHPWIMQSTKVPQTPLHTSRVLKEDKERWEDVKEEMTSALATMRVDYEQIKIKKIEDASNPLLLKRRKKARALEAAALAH
# ASSAY_NOTES: Determination of MK-2 IC50 (phosphorylation of HSP-peptide, anion exchange resin capture assay)
# Assay type: biochemical
# EXPERIMENTAL_CONTEXT: additional values are replicate IC50 experiments; mixture of stereoisomers implied unless otherwise noted; read-out: MK-2 Avg. IC50
Counter-ions that a name gives are not always drawn.
OBSERVABLE: IC50 (µM)
Numbers only, in µM.

Some compounds with known IC50 results, for comparison:
# COMPOUND, OBSERVABLE, RESULT
measured = [
    ("COc1ccc2[nH]c3c(c2c1)CCNC3=O", "IC50", 15),
    ("COC(=O)COc1ccc2[nH]c3c(c2c1)CCNC3C(=O)O (centres unmarked) [Example 70, trifluoroacetate hydrate]", "IC50", 15.3),
    ("COc1ccc2[nH]c3c(c2c1)CCCCC3=NO", "IC50", 6.9),
]

Quick one: IC50 of CCOC(=O)c1cccc2c3c([nH]c12)CCNC3=O ?
34.5
